assay: Cytotoxicity against LPS-stimulated mouse RAW264.7 cells assessed as cell viability at 2.5 ug/ml after 24 hrs by MTT assay relative to control; format: cell-based; details: LPS-stimulated RAW264.7 cells, read-out: Activity
Measured viability at 24 h, 2.5 ug/ml values are reported for all entries that follow.
Remember to quote the unit after the number.

• COc1ccc(/C=C/C(=O)c2cccc(O)c2)cc1OC = 91%
• COc1ccc(/C=C/C(=O)c2ccc(OC)c(OC)c2)cc1 = 93.1%
• COc1ccc(CCCc2cccc(O)c2)cc1 = 99.2%
• COc1ccc(CCCc2ccc(O)c(OC)c2)cc1 = 97.8%

Moving on to another compound below.
Incoming: Fill in the blank: the reported viability at 24 h, 2.5 ug/ml of COc1ccc(/C=C/C(=O)c2ccc(OC)cc2O)cc1 is ____.
Outgoing: 72.3%
